Tested on: NCI-H23 lung
Assay: NCI-60 one-dose screen, 48 h (100 = growth as untreated, 0 = no growth, -100 = all killed)
Conditions: 10 µM
The panel holds about 83,000 compounds, 20% with a hit somewhere; the sample as a whole holds those more often.
Measured growth values are reported for all entries that follow.
The reply should be a number in %, with the unit left off.

QUERY: What value of measured growth is listed for O=c1[nH]c(O)c(/C=C2/C=Nc3ccccc32)[nH]1 ?
RESULT: 101

QUERY: What value of measured growth is listed for Cc1ccc(/C(C#N)=C/c2ccc3c(c2)OCO3)cc1 ?
RESULT: 71.2

QUERY: What value of measured growth is listed for COCCOC(=O)c1ccc(C(C)C)cc1 ?
RESULT: 102

QUERY: What value of measured growth is listed for Nc1ccc(N=Nc2ccc(O)cc2)c(N)n1 ?
RESULT: 91.2

QUERY: What value of measured growth is listed for CC1(C)S(=O)(=O)OCCOS1(=O)=O ?
RESULT: 103

QUERY: What value of measured growth is listed for COc1cc2c3cc1Oc1c(OC)c(OC)cc4c1C(Cc1ccc(O)c(c1)Oc1ccc(cc1)CC3N(C)CC2)N(C)CC4 (stereo not drawn) ?
RESULT: 10.8

QUERY: What value of measured growth is listed for CCOC(=O)C(CCC(C)C)C(=O)OCC ?
RESULT: 103

QUERY: What value of measured growth is listed for CC(C)(C)c1cc(O)c(C(C)(C)C)cc1O ?
RESULT: 96.3

QUERY: What value of measured growth is listed for COc1nc(N)nc2c1ncn2C1OC(CO)CC1O (stereo not drawn) ?
RESULT: 103

QUERY: What value of measured growth is listed for O=C(c1ccc(O)cc1)c1ccc(O)cc1 ?
RESULT: 106

###

Test system: SF-268 CNS
Assay: NCI-60 one-dose screen, 48 h
Settings: 10 µM
Compounds without any hit were thinned out: in the full panel of roughly 83,000, 20% have a hit. The source made the active and inactive calls. Rule for the calls: active = growth percent below 10; inactive = the rest.
Write down one outcome, taken from 1 for active, 0 for inactive

{"Compound": "CC1(C(N)=O)CCC(C(=O)O)C1(C)C (configuration not stated)", "Cat": 0}
{"Compound": "CC(=O)c1ccc(C)c(N)c1", "Cat": 0}
{"Compound": "O=C(N/N=C\\c1cc(Br)cc(Br)c1O)N/N=C/c1cc(Br)cc(Br)c1O", "Cat": 0}
{"Compound": "OCC1OC(OC2C(O)C(CO)OC2(CO)OC2OC(CO)C(O)C(O)C2O)C(O)C(O)C1O (configuration not stated)", "Cat": 0}
{"Compound": "O=C(CCl)Nc1ccc2c(c1)C(=O)c1ccc(NC(=O)CCl)cc1C2=O", "Cat": 1}
{"Compound": "COC(=O)C(O)c1ccccc1 (configuration not stated)", "Cat": 0}

Here's the next entry for you.
QUERY: For Cn1cnc2nc(Cl)nc(Cl)c21 , which call appears in the assay record?
RESULT: 0

###

Tested on: PC-3 prostate
Assay: NCI-60 one-dose screen, 48 h
Settings: 10 µM
This is part of a sample that, as a whole, favours compounds with a hit. Of some 83,000 tested, about 20% had one in any assay. Activity calls are given as the source filed them. How the source made its calls: active means growth percent below 10; inactive means the rest. Where a SMILES comes first, the peptide text is derived from it. Bridges are numbered along the chain shown (N, C = ends). [ ]: non-standard residue; d: D form. The star is where a group is joined. ξ: configuration not given here. ξNMePhe(4-NMe2) = CNC(Cc1ccc(N(C)C)cc1)C(=O)O; Picolinoyl(3-OH) = O=C(c1ncccc1O)*; ξPip(4-oxo) = O=C1CCNC(C(=O)O)C1; Phg = N[CH](C(=O)O)c1ccccc1; Abu = CC[CH](N)C(=O)O
Write down one outcome, taken from active, inactive

{"Molecule": "O=C(Cc1ccc(OCc2ccccc2)cc1)NCc1ccc2c(c1)OCO2", "Experimental system": "PC-3 prostate", "Cat": "inactive"}
{"Molecule": "COc1cc(C(=O)N/N=C/c2cccc([N+](=O)[O-])c2)cc(OC)c1OC", "Experimental system": "PC-3 prostate", "Cat": "inactive"}

QUERY: For CCC1NC(=O)C(NC(=O)c2ncccc2O)C(C)OC(=O)C(c2ccccc2)NC(=O)C2CC(=O)CCN2C(=O)C(Cc2ccc(N(C)C)cc2)N(C)C(=O)C2CCCN2C1=O (centres undefined) (tested in a mixture with another compound) ({Picolinoyl(3-OH)}-T[Abu]P[ξNMePhe(4-NMe2)][ξPip(4-oxo)][Phg]; ester 1-C; configuration not given here) , which call appears in the assay record?
RESULT: inactive

QUERY: For O=[N+]([O-])c1ccccc1N=Nc1ccc(O)cc1O , which call appears in the assay record?
RESULT: inactive

QUERY: For CCOC(=O)c1cc2cccc(OC)c2oc1=O , which call appears in the assay record?
RESULT: inactive

QUERY: For S=c1nn[nH]c2ccccc12 , which call appears in the assay record?
RESULT: inactive

###

Tested on: MDA-MB-435 melanoma
Assay: NCI-60 one-dose screen, 48 h
Settings: 10 µM
About 83,000 compounds went through this panel and 20% of them were active in at least one assay; those are over-represented in the sample as a whole. The source made the active and inactive calls. How the source made its calls: active means growth percent below 10; inactive means the rest.
Write down one outcome, taken from active, inactive

# count of solved cases: 2
{"Molecule": "Nc1ccc(N=Nc2ccc(O)cc2)c(N)n1", "Experimental system": "MDA-MB-435 melanoma", "Cat": "inactive"}
{"Molecule": "Cc1ccc(C(=O)NC2c3ccccc3Oc3ccccc32)cc1", "Experimental system": "MDA-MB-435 melanoma", "Cat": "active"}

QUERY: For C#CCSc1nnnn1-c1ccc(Br)c(C)c1 , which call appears in the assay record?
RESULT: inactive

###

Measured growth values are reported for all entries that follow.
Tested on: BT-549 breast
Assay: NCI-60 one-dose screen, 48 h (100 = growth as untreated, 0 = no growth, -100 = all killed)
Settings: 10 µM
Compounds without any hit were thinned out: in the full panel of roughly 83,000, 20% have a hit.
The reply should be a number in %, with the unit left off.

Consider the reported growth for these compounds:
{"Compound": "CC1NC(=O)NC1CCCCCC(=O)O (stereo unspecified)", "Unit info": "%", "growth": 105}
{"Compound": "COC(=O)/C=C/C(=O)NC(N)=O", "Unit info": "%", "growth": 99.4}

QUERY: What value of measured growth is listed for COc1ncnc2c1cnn2C ?
RESULT: 95.4

QUERY: What value of measured growth is listed for CCC(C)(C)C1CCC(O)CC1 (stereo unspecified) ?
RESULT: 96.6

QUERY: What value of measured growth is listed for CC(=O)CC(=O)N(C)C ?
RESULT: 99.5

QUERY: What value of measured growth is listed for O=C1NC(=O)C2C(=O)NC(=O)C1C21CCc2ccccc21 (stereo unspecified) ?
RESULT: 106

QUERY: What value of measured growth is listed for CC(C)=NNc1ccc([N+](=O)[O-])cc1[N+](=O)[O-] ?
RESULT: 90.9

QUERY: What value of measured growth is listed for O=S(=O)(O)c1ccc(O)c2ccccc12 ?
RESULT: 91.6

QUERY: What value of measured growth is listed for COc1ccc(Oc2c(I)cc(CC(NC(C)=O)C(=O)O)cc2I)cc1 (stereo unspecified) ?
RESULT: 65.1

QUERY: What value of measured growth is listed for Cc1cc(NC(=O)CSCC(=O)O)no1 ?
RESULT: 98.7

QUERY: What value of measured growth is listed for CC(=O)c1ccc(C)c(N)c1 ?
RESULT: 94.7

QUERY: What value of measured growth is listed for CCOC(=O)CNN ?
RESULT: 108

QUERY: What value of measured growth is listed for CCCC1(c2ccccc2)NC(=O)NC1=O (stereo unspecified) ?
RESULT: 106

QUERY: What value of measured growth is listed for CCCCOC(OCCCC)c1ccccc1 ?
RESULT: 107

QUERY: What value of measured growth is listed for C=CCNc1nnc(C)s1 ?
RESULT: 122

QUERY: What value of measured growth is listed for OC1OC(COC(c2ccccc2)(c2ccccc2)c2ccccc2)C(O)C(O)C1O (stereo unspecified) ?
RESULT: 99.6

QUERY: What value of measured growth is listed for CC1SC(N)=NC1=O (stereo unspecified) ?
RESULT: 123

QUERY: What value of measured growth is listed for OCCN(CCO)C(=S)S ?
RESULT: 110

QUERY: What value of measured growth is listed for Cc1ccc(C(=O)c2ccccc2)c(C)c1 ?
RESULT: 99.6

QUERY: What value of measured growth is listed for O=C1Cc2cc(O)ccc2O1 ?
RESULT: 109

QUERY: What value of measured growth is listed for COc1ccccc1NC(=O)C1=C(C)NC(C)=C(C(=O)Nc2ccccc2OC)C1c1cccc([N+](=O)[O-])c1 ?
RESULT: 73.6
